Biological target: soluble cynomolgus monkey TNF-alpha (cynomolgus monkey, UniProt P79337 77-233)
Sequence (P79337 77-233 limits assumed): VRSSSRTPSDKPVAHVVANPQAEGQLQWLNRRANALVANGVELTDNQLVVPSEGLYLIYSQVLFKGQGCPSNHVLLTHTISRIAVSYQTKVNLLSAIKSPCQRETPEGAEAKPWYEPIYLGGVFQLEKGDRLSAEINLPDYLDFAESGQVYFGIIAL
Assay: cell-based or functional assay
Please go through the items and note down their Inhibition of cynomolgus TNF-induced L929 cell cytotoxicity EC50.
Give bare numbers, in pM.

Field: example entries. Status: answers known.
[
  {
    "binder": "Q65C7 (VHH, not shown: small tags and cut ends, Family 1; purified from E. coli) VHH: EVQLVESGGGLVQPGRSLRLSCTASGFDFSSHWMYWVRQAPGKGLEWVSEINTNGLITKYADFVKGRFTVSRDNAANTLYLEITRLEPEDTALYYCARNQKGLNKGQGTQVTVSS",
    "readout unit": "pM",
    "quantitative readout": 30
  },
  {
    "binder": "Q65A3 (VHH, not shown: small tags and cut ends, Family 2; purified from E. coli) VHH: EVQLVESGGGLVQPGGSLRPSCTTSGLDFGIHWMYWFRQAPGKELEWVAEINTNALITKYADSVKGRFTISRDNAKNTLFLQMNDLKSEDTAVYYCSNTQNGAAKGQGVQVTVSS",
    "readout unit": "pM",
    "quantitative readout": 40
  }
]

Attention now shifts to the item below.
Exam item: What value of Inhibition of cynomolgus TNF-induced L929 cell cytotoxicity EC50 has been recorded for this entry: Q65F6 (VHH, not shown: small tags and cut ends, Family 2; purified from E. coli) VHH: EVQLVESGGGLVQPGGSLRLSCTASGFDFGIHWMYWVRQAPGKELEWVAEINTNGLITLYSDSVRGRFTASRDNANNALFLQMNDLKFEDTAVYYCAKSRNGAAKGQGTQVTVSS
Marked response: 1000
